target: JNK3 (Homo sapiens, UniProt P53779); experiment: NanoBRET TE intracellular JNK3 assay; format: cell-based; settings: NanoBRET TE intracellular JNK3 assay; tracer K-10 0.25 µM; means of at least two independent experiments; read-out: JNK3 IC50 ± SEM
Sequence (P53779 whole entry): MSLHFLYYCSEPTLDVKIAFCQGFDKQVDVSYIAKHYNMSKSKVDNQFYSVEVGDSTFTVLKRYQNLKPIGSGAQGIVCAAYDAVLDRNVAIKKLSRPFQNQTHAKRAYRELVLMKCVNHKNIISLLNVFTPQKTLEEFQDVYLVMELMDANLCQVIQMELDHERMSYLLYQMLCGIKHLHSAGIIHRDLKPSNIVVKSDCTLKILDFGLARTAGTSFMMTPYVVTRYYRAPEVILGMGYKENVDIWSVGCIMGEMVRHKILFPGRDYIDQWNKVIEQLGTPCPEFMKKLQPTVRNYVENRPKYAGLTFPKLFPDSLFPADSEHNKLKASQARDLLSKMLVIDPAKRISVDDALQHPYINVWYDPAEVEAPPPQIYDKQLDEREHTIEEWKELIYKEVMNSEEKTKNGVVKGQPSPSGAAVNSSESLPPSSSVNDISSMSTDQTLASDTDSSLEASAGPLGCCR
pIC50: −log10 of the molar value.
Decide using pIC50: a value greater than or equal to 6 is 1, a smaller one is -1.

Answered examples (3):
{"Compound": "C=CC(=O)Nc1cccc(C(=O)Nc2ccc(Nc3cc(-c4c(-c5ccc(F)cc5)nc(SC)n4C)ccn3)cc2)c1 [compound 1, reference compound]", "Answer label": 1}
{"Compound": "CCC(=O)Nc1cccc(C(=O)N(C)c2ccc(Nc3cc(-c4c(-c5ccc(F)cc5)nc(SC)n4C)ccn3)cc2)c1 [compound 10]", "Answer label": -1}
{"Compound": "C=CC(=O)Nc1cccc(NC(=O)c2ccc(N(Cc3cc(OC)c(OC)cc3[N+](=O)[O-])c3cc(-c4c(-c5ccc(F)cc5)nc(SC)n4C)ccn3)cc2)c1 [compound 17]", "Answer label": -1}

Now, please, on to the next compound.
## Task Decide: is the reported value of pIC50 for CCC(=O)Nc1cccc(NC(=O)c2ccc(Nc3cc(-c4c(-c5ccc(F)cc5)nc(SC)n4C)ccn3)cc2)c1 [compound 14] equal to or greater than 6?
## Result -1
